# subject-of-test: mouse TMEM16A mutant I516A (Mus musculus, UniProt Q8BHY3, I516A)
# Construct: expressed in transfected cells; host or cells: HEK293T
# Sequence (Q8BHY3 whole entry I516A): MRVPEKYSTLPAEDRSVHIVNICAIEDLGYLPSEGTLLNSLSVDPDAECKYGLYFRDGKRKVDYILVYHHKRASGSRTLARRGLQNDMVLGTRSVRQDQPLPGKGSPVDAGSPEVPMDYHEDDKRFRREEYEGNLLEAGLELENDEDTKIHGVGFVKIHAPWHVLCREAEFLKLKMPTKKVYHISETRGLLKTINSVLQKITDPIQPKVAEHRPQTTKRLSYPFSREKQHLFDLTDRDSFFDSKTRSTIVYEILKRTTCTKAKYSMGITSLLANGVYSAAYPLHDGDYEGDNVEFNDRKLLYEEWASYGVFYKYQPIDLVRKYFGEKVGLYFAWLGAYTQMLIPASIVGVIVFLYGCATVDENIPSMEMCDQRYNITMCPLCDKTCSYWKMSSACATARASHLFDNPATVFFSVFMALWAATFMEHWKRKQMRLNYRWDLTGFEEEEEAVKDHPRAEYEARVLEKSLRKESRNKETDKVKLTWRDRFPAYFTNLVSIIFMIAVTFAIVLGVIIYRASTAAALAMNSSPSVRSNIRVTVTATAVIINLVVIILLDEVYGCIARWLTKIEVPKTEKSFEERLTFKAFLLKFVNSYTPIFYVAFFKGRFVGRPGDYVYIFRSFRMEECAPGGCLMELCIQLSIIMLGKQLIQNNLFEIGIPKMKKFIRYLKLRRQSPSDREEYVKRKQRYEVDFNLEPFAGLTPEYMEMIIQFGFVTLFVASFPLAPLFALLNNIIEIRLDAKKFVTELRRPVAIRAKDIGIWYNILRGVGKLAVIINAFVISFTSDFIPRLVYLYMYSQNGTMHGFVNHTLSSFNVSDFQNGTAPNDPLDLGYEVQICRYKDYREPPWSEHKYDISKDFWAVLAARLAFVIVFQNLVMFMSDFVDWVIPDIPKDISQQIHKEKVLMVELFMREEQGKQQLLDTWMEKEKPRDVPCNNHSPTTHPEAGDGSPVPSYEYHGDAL
# procedure-details: Inside-out patch recording of 1PBC block, mutant I516A
# Assay type: cell-based
# assay-context: -80 mV; 2 µM Ca2+
readout: IC50 (µM)
API: value field is a number in µM; no unit string.

Query: Using the record for N#Cc1c(C(F)(F)F)cc(O)n2c1nc1ccccc12 , report its IC50.
Reply: 11

====

# subject-of-test: mouse TMEM16A mutant K603Q (Mus musculus, UniProt Q8BHY3, K603Q)
# Construct: expressed in transfected cells; host or cells: HEK293T
# Sequence (Q8BHY3 whole entry K603Q): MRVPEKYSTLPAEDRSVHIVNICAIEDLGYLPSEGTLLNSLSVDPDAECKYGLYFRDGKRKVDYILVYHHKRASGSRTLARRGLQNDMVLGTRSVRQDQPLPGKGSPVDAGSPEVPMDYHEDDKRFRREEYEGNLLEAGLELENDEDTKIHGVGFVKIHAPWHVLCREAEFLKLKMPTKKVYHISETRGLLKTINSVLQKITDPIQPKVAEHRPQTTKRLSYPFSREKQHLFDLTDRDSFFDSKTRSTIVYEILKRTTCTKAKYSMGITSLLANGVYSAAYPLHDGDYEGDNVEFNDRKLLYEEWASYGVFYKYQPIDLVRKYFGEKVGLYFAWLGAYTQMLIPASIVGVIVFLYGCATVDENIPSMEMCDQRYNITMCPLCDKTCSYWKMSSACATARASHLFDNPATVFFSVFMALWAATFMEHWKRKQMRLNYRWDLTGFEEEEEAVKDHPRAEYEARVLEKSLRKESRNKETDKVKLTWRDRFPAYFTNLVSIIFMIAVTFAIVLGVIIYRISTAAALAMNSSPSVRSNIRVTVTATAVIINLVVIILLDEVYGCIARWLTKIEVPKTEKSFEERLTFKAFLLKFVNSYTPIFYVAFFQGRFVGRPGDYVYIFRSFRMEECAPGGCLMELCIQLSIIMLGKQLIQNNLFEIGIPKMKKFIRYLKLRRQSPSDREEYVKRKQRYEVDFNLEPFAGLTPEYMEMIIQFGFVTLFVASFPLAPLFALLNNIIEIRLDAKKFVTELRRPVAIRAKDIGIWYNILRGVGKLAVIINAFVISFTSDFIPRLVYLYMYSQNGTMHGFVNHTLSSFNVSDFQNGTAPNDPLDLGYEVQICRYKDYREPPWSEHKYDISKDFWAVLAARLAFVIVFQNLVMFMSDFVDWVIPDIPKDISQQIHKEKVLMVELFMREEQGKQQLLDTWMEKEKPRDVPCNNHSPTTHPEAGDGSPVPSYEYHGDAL
# procedure-details: Inside-out patch recording of 1PBC block, mutant K603Q
# Type: cell-based
# assay-context: 40 mV; 4 µM Ca2+
readout: IC50 (µM)
API: value field is a number in µM; no unit string.

Query: Using the record for N#Cc1c(C(F)(F)F)cc(O)n2c1nc1ccccc12 , report its IC50.
Reply: 190

FYI, the data here is from paper PMC9120017.
